Tested on: P. falciparum 3D7 trophozoites
Experiment: Metabolomic fingerprint profiling LC-MS
Type: cell-based, Plasmodium falciparum
Parameters: unit not given here
Settings: metabolite UDP-D-glucose, S2 Table Metabolomics
Just so you know, the groups by UDP-D-glucose go like this: low (below 0.001), medium (0.001 to below 0.1), high (0.1 or more)

COMPOUND	CLASS
COc1ccc(-n2ccnc2SCC(=O)Nc2cc(C)ccc2C)c(OC)c1	medium
COc1ccc(C(=O)Nc2nonc2-c2ccc(OC)c(OC)c2)cc1Cl	high
Cc1cc(Nc2ccc3ccccc3c2)n2ncnc2n1	medium
Cc1cc(NC(=O)C2c3ccccc3C(=O)N(CC(C)C)C2c2cccs2)no1 (stereo not shown)	low
CN(C)c1ccc(C=Cc2nc(=O)c3ccccc3o2)cc1	high
CCOC(=O)c1cnc2c(C)cc(C)cc2c1Nc1ccc(OC)c(OC)c1	low

Input CCOc1cc2c(cc1OCC)C(c1cc(OC)c(O)cc1Cl)NCC2 (stereo not shown) ; output its category high

Input COc1ccc2c(=O)cc(C(Cl)(Cl)Cl)oc2c1 ; output its category low

Input CCOC(=O)c1c(C)n(-c2ccc(Cl)cc2)c2ccc(OC(=O)C=Cc3ccccc3)cc12 ; output its category high

Input CNCCCNc1ccnc2cc(Cl)ccc12 ; output its category low

Input CSc1ccccc1C(=O)Nc1nc(-c2ccccn2)cs1 ; output its category high

Input Cc1cc(Nc2ccc(Cl)cc2)n2nc(C(F)(F)F)nc2n1 ; output its category medium

Input COc1cc(OC)c(N(C)C(=O)c2cc3c(s2)-c2ccccc2S(=O)(=O)C3)cc1Cl ; output its category high

Input COc1ccccc1CNC(=O)CCn1c(=O)[nH]c2ccsc2c1=O ; output its category medium

Input CCCc1cc(O)c2c3c(c(=O)oc2c1)CN(C)CC3 ; output its category high

Input Cc1ccc(-c2cc3c(nn2)-c2ccccc2C3=O)cc1 ; output its category medium

Input Cc1ccc(-c2cc3nc4c(c(O)n3n2)CCCC4)cc1 ; output its category low

Input CCN(CC)CCNc1ccnc2cc(Cl)ccc12 ; output its category low

---

System: P. falciparum 3D7 trophozoites
Assay: Metabolomic fingerprint profiling LC-MS
Type: cell-based, Plasmodium falciparum
Conditions: metabolite ATP, S2 Table Metabolomics
Threshold rule: ATP greater than or equal to -0.08 is TRUE; below that, FALSE.

The following compounds have reported results that may help.
COMPOUND	CLASS
O=C(CSc1nccn2nc(-c3ccccc3)cc12)Nc1cc(C(F)(F)F)ccc1Cl	TRUE
O=[N+]([O-])c1ccc(C=NNc2nc3ccccc3[nH]2)cc1	TRUE
COc1ccc(C(C)=O)cc1N1C(=O)C2C(C1=O)C1(c3ccccc3)C(=O)C2(c2ccccc2)C(c2ccc(C)cc2)=C1c1ccc(C)cc1 (centres unmarked)	TRUE

Record CCOC(=O)c1cnc2c(C)cc(C)cc2c1Nc1ccc(OC)c(OC)c1 ; criterion: ATP no lower than -0.08. Met? TRUE

Record COc1ccc(C2=C(c3ccc(OC)cc3)C3(c4ccccc4)C(=O)C2(c2ccccc2)C2C(=O)N(c4ccc(C)cc4)C(=O)C23)cc1 (centres unmarked) ; criterion: ATP no lower than -0.08. Met? TRUE

Record CCN(CC)CCNc1ncnc2c1[nH]c1ccc(Cl)cc12 ; criterion: ATP no lower than -0.08. Met? FALSE

Record COc1ccc2c(=O)cc(C(Cl)(Cl)Cl)oc2c1 ; criterion: ATP no lower than -0.08. Met? FALSE

Record CCCc1c(CC)c(=N)c2ccccc2n1C ; criterion: ATP no lower than -0.08. Met? TRUE

Record Cc1cc(NC(=O)C2c3ccccc3C(=O)N(CC(C)C)C2c2cccs2)no1 (centres unmarked) ; criterion: ATP no lower than -0.08. Met? FALSE

Record CCCCCC(=O)N1c2ccccc2N=C2CC(c3ccc(OC)c(OC)c3)CC(O)=C2C1c1ccc(C(F)(F)F)cc1 (centres unmarked) ; criterion: ATP no lower than -0.08. Met? TRUE

Record COc1ccc(-c2cc3c(SCC(=O)Nc4cc(C(F)(F)F)ccc4Cl)nccn3n2)cc1 ; criterion: ATP no lower than -0.08. Met? TRUE

Record Cc1cc(C)cc(Nc2cc(C)nc3nc(C(F)(F)F)nn23)c1 ; criterion: ATP no lower than -0.08. Met? FALSE

Record Cc1ccc(N2C3c4ccccc4N(S(=O)(=O)c4ccc(C)cc4)C2c2ccccc2N3S(=O)(=O)c2ccc(C)cc2)cc1 ; criterion: ATP no lower than -0.08. Met? TRUE

Record O=C1C(O)=C([C@H]2CC[C@H](c3ccc(Cl)cc3)CC2)C(=O)c2ccccc21 [Atovaquone, reference compound] ; criterion: ATP no lower than -0.08. Met? TRUE

Record COc1cc(OC)c(N(C)C(=O)c2cc3c(s2)-c2ccccc2S(=O)(=O)C3)cc1Cl ; criterion: ATP no lower than -0.08. Met? FALSE

---

Tested on: P. falciparum 3D7 trophozoites
Test: Metabolomic fingerprint profiling LC-MS
Format: cell-based, Plasmodium falciparum
Settings: metabolite CDP; S2 Table Metabolomics, change in metabolite level after compound treatment
Lab note: compare CDP with -0.7, writing met if less and not met if equal or more.

The following molecules have reported results that may help.
MOLECULE	CLASS
CCOC(=O)c1cnc2c(C)cc(C)cc2c1Nc1ccc(OC)c(OC)c1	not met
CCCCCCOC(=O)C1=C(C)NC(=O)NC1c1ccccc1F (stereo not drawn)	met
CC(C)(C)c1ccc(O)c(CNC2CCCCC2)c1	not met
Cc1ccc(-c2cc3nc4c(c(O)n3n2)CCCC4)cc1	met
C[n+]1c2ccccc2nc2ccc(NCCO)cc21	not met

Does this molecule meet the criterion CDP < -0.7? CCCCCC(=O)N1c2ccccc2N=C2CC(c3ccc(OC)c(OC)c3)CC(O)=C2C1c1ccc(C(F)(F)F)cc1 (stereo not drawn) not met

Does this molecule meet the criterion CDP < -0.7? CCC1(C)CC(CCNCc2ccccc2O)(c2ccc(C)cc2)CCO1 (stereo not drawn) not met

Does this molecule meet the criterion CDP < -0.7? Cc1cc(C)cc(Nc2cc(C)nc3nc(C(F)(F)F)nn23)c1 met

---

Tested on: P. falciparum
Assay: EC50 listed in S2 Table Metabolomics (used to set the concentration tested)
Assay type: cell-based
Conditions: Plasmodium falciparum; EC50 used for Factor_XEC50 in metabolomics; read-out: EC50_nM
pEC50: −log10 of the molar value.
Threshold rule: pEC50 greater than or equal to 7 is 1.0; below that, 0.0.

The following compounds have reported results that may help.
COMPOUND	TARGET_OF_ASSAY	CLASS
CCOC(=O)c1c(NC(=O)c2ccccc2)sc2c(O)c(CN(CC)CC)ccc12 [MMV665831]	P. falciparum	0.0
CCn1c(CN2CCN(Cc3ccccc3)CC2)nc2cc(NC(=O)c3cccs3)ccc21 [MMV020439]	P. falciparum	0.0
c1ccc2cc3c(Nc4ccc(N5CCOCC5)cc4)ccnc3cc2c1 [MMV006861]	P. falciparum	0.0
CCN(CC)CCNc1ccnc2cc(Cl)ccc12 [MMV006087]	P. falciparum	1.0

Pending compound:
Record CCCCCC(=O)N1c2ccccc2N=C2CC(c3ccc(OC)c(OC)c3)CC(O)=C2C1c1ccc(C(F)(F)F)cc1 (centres unmarked) [MMV085583] ; criterion: pEC50 no lower than 7. Met? 0.0

---

Provide the recorded FMN for the entries that follow.
System: P. falciparum 3D7 trophozoites
Experiment: Metabolomic fingerprint profiling LC-MS
Type: cell-based, Plasmodium falciparum
Conditions: metabolite level change after treatment
Give bare numbers.

COMPOUND	TARGET_OF_ASSAY	DATA_VALUE
CSc1ccccc1C(=O)Nc1nc(-c2ccccn2)cs1 [MMV001246]	P. falciparum 3D7 trophozoites	0.1616
CCOC(=O)c1cnc2c(C)cc(C)cc2c1Nc1ccc(OC)c(OC)c1 [MMV008294]	P. falciparum 3D7 trophozoites	0.06908
COc1ccc(C(=O)Nc2nonc2-c2ccc(OC)c(OC)c2)cc1Cl [MMV011567]	P. falciparum 3D7 trophozoites	0.2743
CCCCCC(=O)N1c2ccccc2N=C2CC(c3ccc(OC)c(OC)c3)CC(O)=C2C1c1ccc(C(F)(F)F)cc1 (stereo not drawn) [MMV085583]	P. falciparum 3D7 trophozoites	-0.2086
c1ccc2cc3c(Nc4ccc(N5CCOCC5)cc4)ccnc3cc2c1 [MMV006861]	P. falciparum 3D7 trophozoites	0.1069

Fill in FMN for each of the 7 compounds listed.
1. CC1CCN(Cc2ccc(NC(=O)c3cc4ccc5cccnc5c4[nH]3)cc2)CC1 [MMV020549]
2. COc1ccc(NC(=O)C2c3ccccc3C(=O)N(CC(C)C)C2c2cccs2)cc1 (stereo not drawn) [MMV000662]
3. CCOC(=O)c1c(NC(=O)c2ccccc2)sc2c(O)c(CN(CC)CC)ccc12 [MMV665831]
4. CCCCCCOC(=O)C1=C(C)NC(=O)NC1c1ccccc1F (stereo not drawn) [MMV007686]
5. CCc1c(C)c(=N)c2ccccc2n1C [MMV006278]
6. CSC1=NC(=Nc2c(C)cccc2C)C2(CCC(C(C)(C)C)CC2)N1c1ccc(Cl)cc1 (stereo not drawn) [MMV666596]
7. COc1cccc(C=Cc2nc(=O)c3ccccc3o2)c1OC [MMV666693]

1. 0.1472
2. 0.04988
3. 0.1595
4. -0.1451
5. 0.06658
6. 0.0335
7. 0.3054

Fill in FMN for each of the 3 compounds listed.
1. COc1ccc(C2=C(c3ccc(OC)cc3)C3(c4ccccc4)C(=O)C2(c2ccccc2)C2C(=O)N(c4ccc(C)cc4)C(=O)C23)cc1 (stereo not drawn) [MMV666101]
2. CN(C)c1ccc(C(O)(c2ccc(N(C)C)cc2)c2ccc(N(C)C)cc2)cc1 [MMV665941]
3. COc1ccc(-n2ccnc2SCC(=O)Nc2cc(C)ccc2C)c(OC)c1 [MMV019258]

0.02064
0.05461
-0.006391
